Species: Rattus norvegicus
test-description: Total activity of the entire contents of cecum segment in rat intestine
Type: functional
This listing pairs compounds with measured Total activity.
Report as: number unit

Qu. Total activity lookup needed for CC12CCC(=O)C=C1CCC1C2C(O)CC2(C)C1CC[C@]2(O)C(=O)CO[C@@H]1O[C@@H](CO)[C@@H](O)[C@H](O)[C@H]1O (stereo partly drawn) , thanks.
Ans. 11.9 µM/min

Qu. Total activity lookup needed for CC1CC2C3CCC4=CC(=O)C=CC4(C)[C@@]3(F)C(O)CC2(C)[C@@]1(O)C(=O)CO[C@@H]1O[C@@H](CO)[C@@H](O)[C@H](O)[C@H]1O (stereo partly drawn) , thanks.
Ans. 6.5 µM/min

Qu. Total activity lookup needed for CC12CCC(=O)C=C1CCC1C3CC[C@](O)(C(=O)CO[C@H]4O[C@H](CO)[C@@H](O)[C@H](O)[C@H]4O)C3(C)CC(O)[C@@]12F (stereo partly drawn) , thanks.
Ans. 12.9 µM/min
